Target: CYP46A1 (Homo sapiens (Human), UniProt Q9Y6A2)
Sequence (Q9Y6A2 whole entry, species assumed): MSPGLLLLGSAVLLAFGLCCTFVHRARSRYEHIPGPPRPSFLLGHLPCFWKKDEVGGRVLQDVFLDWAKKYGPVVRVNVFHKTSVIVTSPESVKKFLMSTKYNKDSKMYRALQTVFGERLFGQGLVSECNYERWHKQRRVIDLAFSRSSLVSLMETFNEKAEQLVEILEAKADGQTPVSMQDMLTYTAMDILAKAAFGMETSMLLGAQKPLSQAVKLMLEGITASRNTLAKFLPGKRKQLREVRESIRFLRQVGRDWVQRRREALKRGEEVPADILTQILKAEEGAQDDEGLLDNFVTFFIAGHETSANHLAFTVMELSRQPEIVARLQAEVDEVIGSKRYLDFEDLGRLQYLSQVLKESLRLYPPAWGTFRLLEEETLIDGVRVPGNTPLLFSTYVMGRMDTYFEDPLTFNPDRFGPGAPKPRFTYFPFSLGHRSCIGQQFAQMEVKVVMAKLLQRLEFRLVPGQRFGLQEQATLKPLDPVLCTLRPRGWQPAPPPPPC
pIC50: −log10 of the molar value.
Each entry below carries its recorded pIC50.

Consider the reported pIC50 for these compounds:
>>> observed_result("O=C(c1cccnc1-c1ccncn1)N1CCC(F)(Cc2cnc(C(F)(F)F)cn2)CC1")
"6.00 to 7.00"
>>> observed_result("O=C(c1cccnc1-c1ccncn1)N1CCC(F)(Cc2ccc(C(F)(F)F)cc2)CC1")
"> 7.00"
>>> observed_result("O=C(c1cccnc1-c1ccncc1)N1CCC(F)(Cc2cccnn2)CC1")
"6.00 to 7.00"
>>> observed_result("O=C(c1cccnc1-c1ccncc1)N1CCC(F)(Cc2ccc(C(F)(F)F)nn2)CC1")
"6.00 to 7.00"

Okay, next one:
Returns the measured pIC50 for the input compound. Input: O=C(c1cccnc1-c1ccncn1)N1CCC(F)(C(=O)c2ccc(C(F)(F)F)cc2)CC1
6.00 to 7.00

###

Biological target: CYP46A1 (Homo sapiens (Human))
pIC50: −log10 of the molar value.
Parameter pIC50: see the listing below.

Example molecules with recorded pIC50:
>>> observed_result("N#Cc1cc(F)c(CC2(F)CCN(C(=O)c3cccnc3-c3ccncn3)CC2)c(F)c1 [Compound 11]")
"> 7.00"
>>> observed_result("N#Cc1ccc([C@H](O)C2(F)CCN(C(=O)c3cccnc3-c3ccncn3)CC2)c(F)c1 [Compound 15]")
"> 7.00"
>>> observed_result("O=C(c1cccnc1-c1ccncn1)N1CCC(F)(Cc2ccc(C(F)(F)F)nn2)CC1 [Compound 36]")
"6.00 to 7.00"
>>> observed_result("O=C(c1cccnc1-c1ccncn1)N1CCC(F)(Cc2cc(C(F)(F)F)ccn2)CC1 [Compound 25]")
"6.00 to 7.00"
>>> observed_result("Cc1ccc(CC2(F)CCN(C(=O)c3cccnc3-c3ccncn3)CC2)nc1 [Compound 42]")
"6.00 to 7.00"
>>> observed_result("O=C(c1cccnc1-c1ccncn1)N1CCC(F)(Cc2ccc(F)cn2)CC1 [Compound 10]")
"6.00 to 7.00"

Under CYP46A1 (Homo sapiens (Human)): pIC50 value of N#Cc1ccc(CC2(F)CCN(C(=O)c3cccnc3-c3ccncn3)CC2)cc1 [Compound 6] ?
> 7.00

Hi! What's the reported pIC50 for O=C(c1cccnc1-c1ccncn1)N1CCC(F)(CC2CCOCC2)CC1 [Compound 2] on CYP46A1 (Homo sapiens (Human))?
≤ 6.00
